assayTarget: FPR2 (Homo sapiens, UniProt P25090)
Construct: expressed in transfected cells; host or cells: HL60 (human promyelocytic leukemia), stably transfected; gift from Dr. Marie-Josephe Rabiet
Sequence (P25090 whole entry): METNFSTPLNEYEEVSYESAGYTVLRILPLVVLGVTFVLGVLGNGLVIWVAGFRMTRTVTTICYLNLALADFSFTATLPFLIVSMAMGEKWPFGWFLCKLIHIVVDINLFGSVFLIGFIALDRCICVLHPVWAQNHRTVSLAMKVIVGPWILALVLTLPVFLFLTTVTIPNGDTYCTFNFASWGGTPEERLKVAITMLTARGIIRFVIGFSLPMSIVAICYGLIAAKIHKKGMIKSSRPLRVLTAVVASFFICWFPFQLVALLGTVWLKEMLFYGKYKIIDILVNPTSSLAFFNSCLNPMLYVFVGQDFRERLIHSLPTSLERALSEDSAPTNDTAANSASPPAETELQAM
assayInfo: Ca2+ mobilization in FPR2-transfected HL60 cells
Type: cell-based
statedConditions: ratio of EC50 FPR1-HL60 / FPR2-HL60
testReadout: selectivity index (SI) FPR1/FPR2

{"columns": ["compound", "assayTarget", "testReadout", "measurement"],
 "data": [
  ["Cc1c(C(=O)N(C)C)cc(C#N)c(=O)n1CC(=O)Nc1ccc(Br)cc1 [Compound 8e]", "FPR2 (Homo sapiens, UniProt P25090)", "selectivity index (SI) FPR1/FPR2", 7.5],
  ["CCNC(=O)c1cc(C#N)c(=O)n(CC(=O)Nc2ccc(Br)cc2)c1C [Compound 8b]", "FPR2 (Homo sapiens, UniProt P25090)", "selectivity index (SI) FPR1/FPR2", 6],
  ["CCCCNC(=O)c1cc(C#N)c(=O)n(CC(=O)Nc2ccc(Br)cc2)c1C [Compound 8d]", "FPR2 (Homo sapiens, UniProt P25090)", "selectivity index (SI) FPR1/FPR2", 9],
  ["CCOC(=O)c1cc(C#N)c(=O)n(CC(=O)Nc2ccc(Br)cc2)c1C [AMC4, reference compound]", "FPR2 (Homo sapiens, UniProt P25090)", "selectivity index (SI) FPR1/FPR2", 8]
]}

---

assayTarget: FPR1 (Homo sapiens)
Construct: expressed in transfected cells; host or cells: HL60 (human promyelocytic leukemia), stably transfected; gift from Dr. Marie-Josephe Rabiet
Sequence (P21462 1-350): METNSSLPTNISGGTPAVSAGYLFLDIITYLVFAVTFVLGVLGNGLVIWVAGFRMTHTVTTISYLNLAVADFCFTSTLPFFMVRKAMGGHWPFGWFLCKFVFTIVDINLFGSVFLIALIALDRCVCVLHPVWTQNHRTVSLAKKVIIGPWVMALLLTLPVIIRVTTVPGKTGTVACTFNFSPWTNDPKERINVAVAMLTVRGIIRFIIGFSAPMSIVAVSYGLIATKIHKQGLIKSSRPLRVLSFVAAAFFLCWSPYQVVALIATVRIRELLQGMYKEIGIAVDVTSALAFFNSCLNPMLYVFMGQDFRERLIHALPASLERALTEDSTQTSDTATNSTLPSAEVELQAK
assayInfo: Ca2+ mobilization in FPR1-transfected HL60 cells
Format: cell-based
statedConditions: HL-60; read-out: FPR1-HL60 Efficacy (converted)
testReadout: Emax (%)

// solved cases for Emax follow
{"columns": ["molecule", "unitLabel", "Emax"],
 "data": [
  ["COc1cccc(COC(=O)c2cc(C#N)c(=O)n(CC(=O)Nc3ccc(Br)cc3)c2C)c1", "%", 85],
  ["CNC(=O)c1cc(C#N)c(=O)n(CC(=O)Nc2ccc(Br)cc2)c1C", "%", 105],
  ["CCCCOC(=O)c1cc(C#N)c(=O)n(CC(=O)Nc2ccc(Br)cc2)c1C", "%", 70],
  ["Cc1c(C(=O)OC(C)C)cc(C#N)c(=O)n1CC(=O)Nc1ccc(Br)cc1", "%", 180],
  ["Cc1c(-c2cccc(O)c2)cc(C#N)c(=O)n1CC(=O)Nc1cccc(O)c1 [Compound 14b]", "%", 50],
  ["COc1cccc(CCOC(=O)c2cc(C#N)c(=O)n(CC(=O)Nc3ccc(Br)cc3)c2C)c1", "%", 70],
  ["COc1ccc(C(=O)c2cc(C#N)c(=O)n(CC(=O)Nc3ccc(Br)cc3)c2C)cc1", "%", 105],
  ["COc1ccc(C(=O)c2cc(C(N)=O)c(=O)n(CC(=O)Nc3ccc(Br)cc3)c2C)cc1", "%", 105]
]}

(I) CCCOC(=O)c1cc(C#N)c(=O)n(CC(=O)Nc2ccc(Br)cc2)c1C
(II) Cc1c(C(N)=O)cc(C#N)c(=O)n1CC(=O)Nc1ccc(Br)cc1
Query: Which of the two items, I and II , has the greater recorded Emax? Pick one; state its label.
Result: I
(I: 115%, II: 60%)

---

assayTarget: FPR2 (Homo sapiens, UniProt P25090)
Construct: expressed in transfected cells; host or cells: HL60 (human promyelocytic leukemia), stably transfected; gift from Dr. Marie-Josephe Rabiet
assayInfo: Ca2+ mobilization in FPR2-transfected HL60 cells
Assay type: cell-based
pEC50: −log10 of the molar value.
testReadout: pEC50

(I) CCCNC(=O)c1cc(C#N)c(=O)n(CC(=O)Nc2ccc(Br)cc2)c1C
(II) Cc1c(-c2cccc(O)c2)cc(C#N)c(=O)n1CC(=O)Nc1cccc(O)c1 [Compound 14b]
(III) COc1cccc(COC(=O)c2cc(C#N)c(=O)n(CC(=O)Nc3ccc(Br)cc3)c2C)c1
(IV) CCCOC(=O)c1cc(C#N)c(=O)n(CC(=O)Nc2ccc(Br)cc2)c1C
(V) Cc1c(C(N)=O)cc(C#N)c(=O)n1CC(=O)Nc1ccc(Br)cc1
Query: Quick one: which order do the items above go in by pEC50, smallest to largest? Answer format: the labels, ordered as requested.
Result: II, III, V, IV, I

---

testReadout: melting point

These recorded examples may help you get a feel for the data.
{"columns": ["molecule", "measurement"],
 "data": [
  ["Cc1c(C(=O)OC(C)C)cc(C#N)c(=O)n1CC(=O)Nc1ccc(Br)cc1 [Compound 4c]", "223 to 224 °C"],
  ["Cc1c(-c2cccc(O)c2)cc(C#N)c(=O)n1CC(=O)Nc1ccc(Br)cc1 [Compound 14a]", "282 to 284 °C (dec.)"],
  ["CNC(=O)c1cc(C#N)c(=O)n(CC(=O)Nc2ccc(Br)cc2)c1C [Compound 8a]", "> 300 °C (dec.)"],
  ["CCNC(=O)c1cc(C#N)c(=O)n(CC(=O)Nc2ccc(Br)cc2)c1C [Compound 8b]", "290 °C (dec.)"],
  ["CCCCNC(=O)c1cc(C#N)c(=O)n(CC(=O)Nc2ccc(Br)cc2)c1C [Compound 8d]", "261 to 263 °C (dec.)"]
]}

Query: Fill in: melting point of Cc1c(C(=O)O)cc(C#N)c(=O)n1CC(=O)Nc1ccc(Br)cc1 [Compound 2] is ___
Result: 180 to 182 °C (dec.)

Query: For the molecule shown here, CCCOC(=O)c1cc(C#N)c(=O)n(CC(=O)Nc2ccc(Br)cc2)c1C [Compound 4a] , give the reported melting point.
Result: 193 to 195 °C (dec.)

Query: Give its melting point value. Item: CCCCOC(=O)c1cc(C#N)c(=O)n(CC(=O)Nc2ccc(Br)cc2)c1C [Compound 4b]
Result: 109 to 111 °C (dec.)

Query: What does the record list as melting point for Cc1c(C(=O)N(C)C)cc(C#N)c(=O)n1CC(=O)Nc1ccc(Br)cc1 [Compound 8e] ?
Result: 122 to 124 °C

Query: Look at this molecule and give its reported melting point. Cc1c(-c2cccc(O)c2)cc(C#N)c(=O)n1CC(=O)Nc1cccc(O)c1 [Compound 14b]
Result: 187 to 189 °C (dec.)

---

assayTarget: FPR1 (Homo sapiens, UniProt P21462)
Construct: expressed in transfected cells; host or cells: HL60 (human promyelocytic leukemia), stably transfected; gift from Dr. Marie-Josephe Rabiet
assayInfo: Ca2+ mobilization in FPR1-transfected HL60 cells
Assay type: cell-based
testReadout: EC50 (µM)

{"columns": ["compound", "assayTarget", "EC50, µM"],
 "data": [
  ["CCNC(=O)c1cc(C#N)c(=O)n(CC(=O)Nc2ccc(Br)cc2)c1C [Compound 8b]", "FPR1 (Homo sapiens, UniProt P21462)", 21.2],
  ["CCCOC(=O)c1cc(C#N)c(=O)n(CC(=O)Nc2ccc(Br)cc2)c1C [Compound 4a]", "FPR1 (Homo sapiens, UniProt P21462)", 16.3]
]}

(A) Cc1c(-c2cccc(O)c2)cc(C#N)c(=O)n1CC(=O)Nc1cccc(O)c1 [Compound 14b]
(B) Cc1c(C(N)=O)cc(C#N)c(=O)n1CC(=O)Nc1ccc(Br)cc1 [Compound 6]
(C) CNC(=O)c1cc(C#N)c(=O)n(CC(=O)Nc2ccc(Br)cc2)c1C [Compound 8a]
(D) Cc1c(C(=O)O)cc(C#N)c(=O)n1CC(=O)Nc1ccc(Br)cc1 [Compound 2]
Query: Returns the items ordered by EC50, from maximum to minimum. Answer by naming the labels in the order asked.
Result: A, B, D, C
(A: 40.1 µM, B: 27.1 µM, D: 3.5 µM, C: 2.2 µM)

(a) CCCCOC(=O)c1cc(C#N)c(=O)n(CC(=O)Nc2ccc(Br)cc2)c1C [Compound 4b]
(b) CCCNC(=O)c1cc(C#N)c(=O)n(CC(=O)Nc2ccc(Br)cc2)c1C [Compound 8c]
(c) COc1ccc(C(=O)c2cc(C(N)=O)c(=O)n(CC(=O)Nc3ccc(Br)cc3)c2C)cc1 [Compound 10]
Query: Arrange by EC50, high to low. Would you mind listing the labels in the order asked for?
Result: a, b, c
